- Target Under Test: adenylosuccinate synthase (Oryctolagus cuniculus)
- Measurement Description: adenylosuccinate synthase inhibition (change of absorbance at 285 nm with time)
- Type: biochemical
- Assay Conditions: read-out: IC50 (inhibited adenylosuccinate synthase activity); enzyme purified from rabbit muscles; 0.2 mM GTP, 0.2 mM IMP, 2.5 mM Asp, pH 7.3
Readout Label: pIC50
Remember, pIC50 is on a log scale: it is -log10 of the molar concentration.

Request - read-out pIC50 | tested on adenylosuccinate synthase (Oryctolagus cuniculus) | compound O=C1NC(=O)[C@@]2(N1)O[C@H](COP(=O)(O)O)[C@@H](O)[C@H]2O [hydantocidin-5'-monophosphate]
7.52

* * *

- Target Under Test: adenylosuccinate synthase (Oryctolagus cuniculus, UniProt G1TGN8)
- Sequence (G1TGN8 entry or part of it): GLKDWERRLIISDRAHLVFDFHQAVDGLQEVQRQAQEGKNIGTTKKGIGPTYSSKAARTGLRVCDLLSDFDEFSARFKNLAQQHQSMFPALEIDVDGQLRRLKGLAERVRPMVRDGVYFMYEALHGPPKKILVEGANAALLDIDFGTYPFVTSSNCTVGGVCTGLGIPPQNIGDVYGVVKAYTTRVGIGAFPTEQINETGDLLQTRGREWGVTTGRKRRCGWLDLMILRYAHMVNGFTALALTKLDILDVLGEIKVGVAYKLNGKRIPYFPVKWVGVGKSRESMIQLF
- Measurement Description: adenylosuccinate synthase inhibition (change of absorbance at 285 nm with time)
- Assay type: biochemical
- Assay Conditions: enzyme purified from rabbit muscles; 0.2 mM GTP, 0.2 mM IMP, 2.5 mM Asp, pH 7.3; read-out: IC50 (inhibited adenylosuccinate synthase activity)
Readout Label: IC50

Look up IC50: O=CN(O)CC(=O)O
10 µM
